src = PubChem BioAssay AID330

Test system: P388 leukemia ip, CD2F1 mice, survival T/C
protocol_description: NCI In Vivo Anticancer Drug Screen. Data for tumor model P388 Leukemia (intraperitoneal) in CD2F1 (CDF1) mice
test_context: endpoint: median survival time; dose: 60.0 mg/kg/injection; schedule: Q01DX005 (ip); vehicle: saline with Tween-80; higher = longer survival
Inconclusive results and toxic doses are left out.
result_type: T/C

Before answering, review these 5 worked examples.
{"columns": ["compound", "target_entity", "result_type", "recorded_result"],
 "data": [
  ["CCC(=O)NN1C(=O)c2ccccc2C1=O", "P388 leukemia ip, CD2F1 mice, survival T/C", "T/C", "103 % of control"],
  ["Fc1cccc(F)c1C(Nc1nncs1)Nc1nncs1", "P388 leukemia ip, CD2F1 mice, survival T/C", "T/C", "108 % of control"],
  ["O=c1nc2n(c3ncccc13)CC=NN2", "P388 leukemia ip, CD2F1 mice, survival T/C", "T/C", "99 % of control"],
  ["CCC=Nc1c(O)cc(-c2ccccc2)n(C)c1=O", "P388 leukemia ip, CD2F1 mice, survival T/C", "T/C", "94 % of control"],
  ["c1csc(C2N3CCN(CC3)C(c3cccs3)N3CCN2CC3)c1 (centres undefined)", "P388 leukemia ip, CD2F1 mice, survival T/C", "T/C", "100 % of control"]
]}

Could you share which T/C value was measured for COc1cc(/C=N/NC(=O)CNC(=O)c2ccccc2)ccc1O ?
93 % of control

Check O=C1c2ccc3ccccc3c2CN2C(=O)CCC12 (centres undefined) too.
105 % of control
